Measured IC50 by item
- Study Target: active p38 alpha enzyme (Upstate Biotechnology) (Homo sapiens, UniProt Q16539)
- Construct: purchased Upstate Biotechnology
- Sequence (Q16539 whole entry): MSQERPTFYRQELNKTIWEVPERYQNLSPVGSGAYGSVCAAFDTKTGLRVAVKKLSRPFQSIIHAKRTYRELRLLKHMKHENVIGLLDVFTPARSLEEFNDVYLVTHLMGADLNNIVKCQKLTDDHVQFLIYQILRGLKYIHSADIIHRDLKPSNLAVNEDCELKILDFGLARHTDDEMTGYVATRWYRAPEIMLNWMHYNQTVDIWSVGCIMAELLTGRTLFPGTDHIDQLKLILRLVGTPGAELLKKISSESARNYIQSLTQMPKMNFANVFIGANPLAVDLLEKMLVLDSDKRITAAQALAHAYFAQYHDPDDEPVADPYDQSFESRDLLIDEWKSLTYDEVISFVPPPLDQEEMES
- Protocol Summary: p38α biochemical assay (ATP turnover, luminescent detection, Cambrex PKlight)
- Setup Conditions: p38α biochemical assay, Table 1 Biological Activity
Assay Readout: IC50

> print(dat)
                                    compound  observed
 1  Cc1onc(-c2ccc(Cl)cc2)c1-c1ccn(C(=O)NC2Cc3ccccc3C2)n1    > 1 µM
 2  CC(C)NC(=O)c1csc(-c2oc(CNC(=O)C3CN(C(=O)OC(C)(C)C)CCN3)nc2-c2ccc(F)cc2)n1 (stereo not drawn) [Example 314]    ≤ 1 µM
 3  CC(C)NC(=O)c1csc(-c2oc(CNC(=O)C(O)CCl)nc2-c2ccc(F)cc2)n1 (stereo not drawn)    ≤ 1 µM
 4  CC(C)NC(=O)c1csc(-c2oc(CNC(=O)C3CCCN3C(=O)OCc3ccccc3)nc2-c2ccc(F)cc2)n1 (stereo not drawn)    > 1 µM
 5  CC(C)NC(=O)c1csc(-c2[nH]c(CN3CCOCC3)nc2-c2ccc(F)cc2)n1    ≤ 1 µM
 6  CC(C)NC(=O)c1csc(-c2oc(CNC(=O)c3ccc(F)cc3Cl)nc2-c2ccc(F)cc2)n1    ≤ 1 µM
 7  CCCc1ccc(C(=O)NCc2nc(-c3ccc(F)cc3)c(-c3nc(C(=O)NC(C)C)cs3)o2)cc1    > 1 µM
 8  CC(C)NC(=O)c1csc(-c2oc(CNC(=O)c3c(F)cccc3F)nc2-c2ccc(F)cc2)n1    ≤ 1 µM
 9  CCCCOc1ccc(C(=O)N2CCN(Cc3nc(-c4ccc(F)cc4)c(-c4nc(C(=O)NC(C)C)cs4)o3)CC2)cc1    ≤ 1 µM
10  CCNC(=O)c1csc(-c2sc(C)nc2-c2ccc(F)cc2)n1    ≤ 1 µM
11  CC(C)NC(=O)c1csc(-c2oc(CNC(=O)c3cc([N+](=O)[O-])ccc3F)nc2-c2ccc(F)cc2)n1    > 1 µM
12  COc1cccc(O)c1C(=O)NCc1onc(-c2ccc(F)cc2)c1-c1nc(C(=O)NC(C)C)cs1    > 1 µM
13  CC(C)NC(=O)c1csc(-c2oc(CN3CCN(C(=O)c4cccc(Br)c4)CC3)nc2-c2ccc(F)cc2)n1    > 1 µM
14  CC(C)NC(=O)c1csc(-c2oc(CN3CCN(C(=O)c4cccnc4Cl)CC3)nc2-c2ccc(F)cc2)n1    > 1 µM
15  CC(C)NC(=O)c1csc(-c2oc(CN3CCN(C(=O)Cc4ccc5c(c4)OCO5)CC3)nc2-c2ccc(F)cc2)n1    > 1 µM

###

Measured IC50 by item
- Study Target: active p38 alpha enzyme (Upstate Biotechnology) (Homo sapiens)
- Construct: purchased Upstate Biotechnology
- Protocol Summary: p38α biochemical assay (ATP turnover, luminescent detection, Cambrex PKlight)
- Setup Conditions: p38α biochemical assay, Table 1 Biological Activity
- Description: The p38α biochemical assay employed is based on measurement of total ATP turnover following enzyme incubation with substrate in the presence of ATP with the use of a luminescent detection reagent (Cambrex PKlight). […] The final volume was 7.5005 μL as prepared prepared from the addition of 5 ul of kinase reaction (p38 alpah+MapkapK2+ATP) with 0.0005 μL compound dissolved in DMSO, and 2.5 ul of the detection reagent. […] Assay is read using a Perkin Elmer Viewlux.
Assay Readout: IC50

> print(dat)
                                   compound                              study.target  assay.readout  observed
1  CC(C)NC(=O)c1csc(-c2oc(CN3CCN(C(=O)c4ccc([N+](=O)[O-])c(O)c4)CC3)nc2-c2ccc(F)cc2)n1  active p38 alpha enzyme (Upstate Biotechnology) (Homo sapiens)           IC50    > 1 µM
2  CC(C)NC(=O)c1csc(-c2oc(CNC(=O)CCc3cccc(C(F)(F)F)c3)nc2-c2ccc(F)cc2)n1  active p38 alpha enzyme (Upstate Biotechnology) (Homo sapiens)           IC50    ≤ 1 µM
3  CC(C)NC(=O)c1csc(-c2oc(CN3CCN(C(=O)C(C)O)CC3)nc2-c2ccc(F)cc2)n1 (stereo not shown)  active p38 alpha enzyme (Upstate Biotechnology) (Homo sapiens)           IC50    > 1 µM
4  CC(C)NC(=O)c1csc(-c2oc(CN3CCN(C(=O)CNC(=O)OC(C)(C)C)CC3)nc2-c2ccc(F)cc2)n1  active p38 alpha enzyme (Upstate Biotechnology) (Homo sapiens)           IC50    > 1 µM

###

- Study Target: active p38 alpha enzyme (Upstate Biotechnology) (Homo sapiens, UniProt Q16539)
- Construct: purchased Upstate Biotechnology
- Protocol Summary: p38α biochemical assay (ATP turnover, luminescent detection, Cambrex PKlight)
- Setup Conditions: p38α kinase; Table 1 Biological Activity
pIC50: −log10 of the molar value.
Assay Readout: pIC50

> print(dat)
                                   molecule                              study.target  assay.readout  observed
1  Cc1ccc([C@H](C)NCc2onc(-c3ccc(F)cc3)c2-c2nc(C(=O)NC(C)C)cs2)cc1  active p38 alpha enzyme (Upstate Biotechnology) (Homo sapiens, UniProt Q16539)          pIC50    < 6.00
2  C[C@H](NC(=O)c1csc(-c2c(-c3ccc(F)cc3)n[nH]c2C2CCNCC2)n1)c1ccccc1  active p38 alpha enzyme (Upstate Biotechnology) (Homo sapiens, UniProt Q16539)          pIC50    < 6.00
3  CCN(Cc1ccccc1)Cc1nc(-c2ccc(F)cc2)c(-c2nc(C(=O)NC(C)C)cs2)o1  active p38 alpha enzyme (Upstate Biotechnology) (Homo sapiens, UniProt Q16539)          pIC50    < 6.00
4  CC(C)NC(=O)c1csc(-c2c(-c3ccc(F)cc3)noc2CN2CCCC(c3ccc(C(F)(F)F)cc3)C2)n1 (stereo not shown)  active p38 alpha enzyme (Upstate Biotechnology) (Homo sapiens, UniProt Q16539)          pIC50    < 6.00
5  CC(C)NC(=O)c1csc(-c2c(-c3ccc(F)cc3)n[nH]c2C2CCN(C(=O)c3ccc(OCc4ccccc4)cc3)CC2)n1  active p38 alpha enzyme (Upstate Biotechnology) (Homo sapiens, UniProt Q16539)          pIC50    < 6.00
6  CC(C)NC(=O)c1csc(-c2c(-c3ccc(F)cc3)noc2CNCC2(O)CCCCC2)n1  active p38 alpha enzyme (Upstate Biotechnology) (Homo sapiens, UniProt Q16539)          pIC50    < 6.00
7  Cc1ccc(CCNC(=O)c2csc(-c3c(-c4ccc(F)cc4)n[nH]c3C3CCNCC3)n2)cc1  active p38 alpha enzyme (Upstate Biotechnology) (Homo sapiens, UniProt Q16539)          pIC50    < 6.00

###

- Study Target: active p38 alpha enzyme (Upstate Biotechnology) (Homo sapiens)
- Construct: purchased Upstate Biotechnology
- Protocol Summary: p38α biochemical assay (ATP turnover, luminescent detection, Cambrex PKlight)
- Setup Conditions: p38α biochemical assay, Table 1 Biological Activity
Assay Readout: IC50

> print(dat)
                                   compound  observed
1  CCOC(=O)CC(=O)NCc1onc(-c2ccc(F)cc2)c1-c1nc(C(=O)NC(C)C)cs1    > 1 µM
2  CC(C)NC(=O)c1csc(-c2oc(CN3CCN(C(=O)c4cc(Cl)ccc4O)CC3)nc2-c2ccc(F)cc2)n1    ≤ 1 µM
3  CC(C)NC(=O)c1csc(-c2oc(CNC(=O)c3ccccc3Oc3ccccc3)nc2-c2ccc(F)cc2)n1    > 1 µM
4  CC(C)NC(=O)c1csc(-c2oc(CNC(=O)C3CCCN3C(=O)OC(C)(C)C)nc2-c2ccc(F)cc2)n1 (stereo not shown)    > 1 µM

###

- Study Target: active p38 alpha enzyme (Upstate Biotechnology) (Homo sapiens, UniProt Q16539)
- Construct: purchased Upstate Biotechnology
- Protocol Summary: p38α biochemical assay (ATP turnover, luminescent detection, Cambrex PKlight)
- Setup Conditions: p38α kinase; Table 1 Biological Activity
pIC50: −log10 of the molar value.
Assay Readout: pIC50

> print(dat)
                                    compound  observed
 1  CCN(CC)CCNCc1nc(-c2ccc(F)cc2)c(-c2nc(C(=O)NC(C)C)cs2)o1    < 6.00
 2  CC(C)NC(=O)c1csc(-c2c(-c3ccc(F)cc3)n[nH]c2C2CCN(C(=O)c3ccc(C=O)cc3)CC2)n1    ≥ 6.00
 3  CCOC(=O)N1CCN(C(=O)c2csc(-c3sc(C)nc3-c3ccc(F)cc3)n2)CC1    < 6.00
 4  O=C(NN1CCOCC1)c1csc(-c2c(-c3ccc(F)cc3)n[nH]c2C2CCNCC2)n1    < 6.00
 5  CC(C)NC(=O)c1csc(-c2c(-c3ccc(F)cc3)n[nH]c2C2CCN(C(=O)C3CCCCN3C(=O)OC(C)(C)C)CC2)n1 (stereo not shown)    < 6.00
 6  CC(C)NCc1nc(-c2ccc(F)cc2)c(-c2nc(C(=O)NC(C)C)cs2)o1    < 6.00
 7  CC(C)NC(=O)c1csc(-c2c(-c3ccc(F)cc3)noc2CN(C)C2CCCCC2)n1    < 6.00
 8  CC(C)NC(=O)c1csc(-c2c(-c3ccc(F)cc3)n[nH]c2C2CCN(C(=O)c3c(F)cccc3Cl)CC2)n1    < 6.00
 9  CC(C)NC(=O)c1csc(-c2c(-c3ccc(F)cc3)noc2CNc2ccc(F)c(C(F)(F)F)c2)n1    < 6.00
10  Cc1cccc(C(C)C)c1NCc1onc(-c2ccc(F)cc2)c1-c1nc(C(=O)NC(C)C)cs1    < 6.00
11  Cc1nc(-c2ccc(F)cc2)c(-c2nc(C(=O)N(C)CCc3ccccn3)cs2)s1    < 6.00
12  CC(C)NC(=O)c1csc(-c2oc(CNC3CC(C)(C)NC(C)(C)C3)nc2-c2ccc(F)cc2)n1    < 6.00
13  CC(=O)c1cccc(NC(=O)c2csc(-c3sc(C)nc3-c3ccc(F)cc3)n2)c1    ≥ 6.00
14  COc1ccc(CNC(=O)c2csc(-c3c(-c4ccc(F)cc4)n[nH]c3C3CCNCC3)n2)cc1    ≥ 6.00
15  Cc1nc(-c2ccc(F)cc2)c(-c2nc(C(=O)Nc3cnc4ccccc4c3)cs2)s1    ≥ 6.00
16  Cc1nc(-c2ccc(F)cc2)c(-c2nc(C(=O)N3CCC[C@@H]3CO)cs2)s1    < 6.00
17  CCN(CC)C(=O)c1csc(-c2sc(C)nc2-c2ccc(F)cc2)n1    < 6.00
18  CCN(C)Cc1onc(-c2ccc(F)cc2)c1-c1nc(C(=O)NC(C)C)cs1    < 6.00
19  CC(C)NC(=O)c1csc(-c2c(-c3ccc(F)cc3)noc2CN2CCN(c3ccccc3Cl)CC2)n1    < 6.00
20  CC(C)NC(=O)c1csc(-c2c(-c3ccc(F)cc3)noc2CNCc2cc(F)cc(F)c2)n1    < 6.00
21  CC(C)NC(=O)c1csc(-c2c(-c3ccc(F)cc3)n[nH]c2C2CCN(C(=O)C(C)NC(=O)OC(C)(C)C)CC2)n1 (stereo not shown) [Example 961]    < 6.00
22  CC(C)NC(=O)c1csc(-c2oc(CN(C)CCO)nc2-c2ccc(F)cc2)n1    < 6.00
23  CC(C)NC(=O)c1csc(-c2c(-c3ccc(F)cc3)n[nH]c2C2CCN(C(=O)CNC(=O)OC(C)(C)C)CC2)n1    < 6.00
24  CCOc1ccc2ccccc2c1C(=O)N1CCC(c2[nH]nc(-c3ccc(F)cc3)c2-c2nc(C(=O)NC(C)C)cs2)CC1    < 6.00
25  CC(C)NC(=O)c1csc(-c2c(-c3ccc(F)cc3)n[nH]c2C2CCN(C(=O)Cc3ccc4c(c3)OCO4)CC2)n1    < 6.00
26  CC(C)NC(=O)c1csc(-c2oc(CNc3cc(F)c(F)cc3F)nc2-c2ccc(F)cc2)n1    < 6.00
27  Cc1nc(-c2ccc(F)cc2)c(-c2nc(C(=O)N3CCc4ccccc4C3)cs2)s1    < 6.00
28  COc1ccc(CNC(=O)c2csc(-c3sc(C)nc3-c3ccc(F)cc3)n2)cc1O    ≥ 6.00
29  Cc1nc(-c2ccc(F)cc2)c(-c2nc(C(=O)NN3CCN(C)CC3)cs2)s1    < 6.00
30  CCN(CCCCO)Cc1onc(-c2ccc(F)cc2)c1-c1nc(C(=O)NC(C)C)cs1    < 6.00
31  Cc1nc(-c2ccc(F)cc2)c(-c2nc(C(=O)NCc3ccco3)cs2)s1    ≥ 6.00

Just for reference, patent US20060252807A1 is where these values come from.
